tested on: Haemonchus contortus; assay: Anthelmintic activity against Haemonchus contortus L1 to L3 stage assessed as larvae development incubated for 4 days; type: functional, organism-based; conditions: 96 h
pEC50: −log10 of the molar value.
# maps each entry to its pEC50
Measured Parameter: pEC50

CC(=O)N[C@@H](CSC1=C2C3=C(C)C(=O)C(O)=C2[C@@H]2O[C@@H](CC[C@H](C)/C=C(\C)C[C@@H](C)C[C@H](C)[C@]1(O)O3)[C@H](C)[C@H](O)[C@@H]2C)C(=O)O = 4.41
CC1=C2O[C@]3(O)C=C2C(=C(O)C1=O)[C@@H]1O[C@@H](CC[C@H](C)/C=C(\C)C[C@@H](C)C[C@@H]3C)[C@H](C)[C@H](O)[C@@H]1C = 4.31
CC1=C2O[C@]3(O)C(N)=C2C(=C(O)C1=O)[C@@H]1O[C@@H](CC[C@H](C)/C=C(\C)C[C@@H](C)C[C@@H]3C)[C@H](C)[C@H](O)[C@@H]1C = 4.62
CSC1=C2C3=C(C)C(=O)C(O)=C2[C@@H]2O[C@@H](CC[C@H](C)/C=C(\C)C[C@@H](C)C[C@H](C)[C@]1(O)O3)[C@H](C)[C@H](O)[C@@H]2C = 4.52
CC1=C(O)C(=O)c2c3sc(c2C1=O)C(=O)[C@@H](C)C[C@H](C)C/C(C)=C/[C@@H](C)CC[C@@H](O)[C@H](C)[C@H](O)[C@@H]3C = 4.33
CC1=C(O)C(=O)C2=C(C1=O)[C@H](S(=O)(=O)O)C(=O)[C@@H](C)C[C@H](C)C/C(C)=C/[C@@H](C)CC[C@@H]1O[C@@H]2[C@@H](C)[C@@H](O)[C@H]1C = 4.36

---

assay: Cytotoxicity against human SW620 cells incubated for 24 hrs by MTT assay; assay type: toxicity, cell-based, SW-620
# maps each entry to its IC50 at 24 h
Measured Parameter: IC50 at 24 h

CC1=C(O)C(=O)C2=C(C1=O)[C@H](S(=O)(=O)O)C(=O)[C@@H](C)C[C@H](C)C/C(C)=C/[C@@H](C)CC[C@@H]1O[C@@H]2[C@@H](C)[C@@H](O)[C@H]1C = > 30 µM
C/C1=C\[C@@H](C)CC[C@@H]2O[C@@H](c3c(O)c(O)c(C)c4c3C(=O)[C@@](O)(O4)[C@@H](C)C[C@H](C)C1)[C@@H](C)[C@@H](O)[C@H]2C = > 30 µM
CSC1=C2C3=C(C)C(=O)C(O)=C2[C@@H]2O[C@@H](CC[C@H](C)/C=C(\C)C[C@@H](C)C[C@H](C)[C@]1(O)O3)[C@H](C)[C@H](O)[C@@H]2C = 2.4 µM

---

tested on: Dirofilaria immitis; assay: Anthelmintic activity against Dirofilaria immitis microfilaria stage assessed as inhibition of motility incubated for approximately 72 hrs; assay type: functional, organism-based
pEC50: −log10 of the molar value. Peptide text beside a SMILES is read from it. * marks the point of attachment. NHCH2CH2OH = OCCN*; For = O=C*
# maps each entry to its pEC50
Measured Parameter: pEC50

CSC1=C2C3=C(C)C(=O)C(O)=C2[C@@H]2O[C@@H](CC[C@H](C)/C=C(\C)C[C@@H](C)C[C@H](C)[C@]1(O)O3)[C@H](C)[C@H](O)[C@@H]2C = 6.52
CC1=c2oc3c(O)c2=C(C(=O)C1=O)[C@@H]1O[C@@H](CC[C@H](C)/C=C(\C)C[C@@H](C)C[C@@H]3C)[C@H](C)[C@H](O)[C@@H]1C = 6.70
CC1=C2O[C@]3(O)C(N)=C2C(=C(O)C1=O)[C@@H]1O[C@@H](CC[C@H](C)/C=C(\C)C[C@@H](C)C[C@@H]3C)[C@H](C)[C@H](O)[C@@H]1C = 6.30
CC(=O)N[C@@H](CSC1=C2C3=C(C)C(=O)C(O)=C2[C@@H]2O[C@@H](CC[C@H](C)/C=C(\C)C[C@@H](C)C[C@H](C)[C@]1(O)O3)[C@H](C)[C@H](O)[C@@H]2C)C(=O)O = 5.44
C/C1=C\[C@@H](C)CC[C@@H]2O[C@@H](c3c(O)c(O)c(C)c4c3C(=O)[C@@](O)(O4)[C@@H](C)C[C@H](C)C1)[C@@H](C)[C@@H](O)[C@H]2C = 5.89
CC1=C(O)C(=O)c2c3sc(c2C1=O)C(=O)[C@@H](C)C[C@H](C)C/C(C)=C/[C@@H](C)CC[C@@H](O)[C@H](C)[C@H](O)[C@@H]3C = 5.68
CC1=C(O)C(=O)C2=C(C1=O)[C@H](S(=O)(=O)O)C(=O)[C@@H](C)C[C@H](C)C/C(C)=C/[C@@H](C)CC[C@@H]1O[C@@H]2[C@@H](C)[C@@H](O)[C@H]1C = 4.68
CC(C)C[C@H](NC(=O)[C@H](C)NC(=O)CNC(=O)[C@@H](NC=O)C(C)C)C(=O)N[C@@H](C)C(=O)N[C@H](C(=O)N[C@H](C(=O)N[C@H](C(=O)N[C@@H](Cc1c[nH]c2ccccc12)C(=O)N[C@@H](CC(C)C)C(=O)N[C@@H](Cc1c[nH]c2ccccc12)C(=O)N[C@@H](CC(C)C)C(=O)N[C@@H](Cc1c[nH]c2ccccc12)C(=O)N[C@@H](CC(C)C)C(=O)N[C@@H](Cc1c[nH]c2ccccc12)C(=O)NCCO)C(C)C)C(C)C)C(C)C (For-VGALAVVVWLWLWLW-NHCH2CH2OH) = 7.00
CC1=C2O[C@]3(O)C=C2C(=C(O)C1=O)[C@@H]1O[C@@H](CC[C@H](C)/C=C(\C)C[C@@H](C)C[C@@H]3C)[C@H](C)[C@H](O)[C@@H]1C = 5.39

Every entry's value here was drawn from ChEMBL document CHEMBL6078660.
